This collection of values is drawn from patent US10604509B2.

- Test system: NQO1 specific enzyme activity in BEAS-2B cells
- test summary: BEAS-2B NQO1 MTT assay
- Type: cell-based
- measurement setup: Homo sapiens, BEAS-2B, 48 h, BEAS-2B cells, 48 hours with compound, MTT readout; read-out: EC50 of NQO1 specific activity induction
Where a name gives a salt, the structure may show the parent alone.
reported metric: EC50

Below: 4 molecules and their reported EC50.
[[record]]
molecule = "CCn1nnc2c(C)c([C@@H](c3ccc(C)c(Cn4ccnc4CN4CCCCC4)c3)[C@H](C)C(=O)O)ccc21 [Example 201]"
reported_metric = "EC50"
readout_value = "100 to 1000 nM"

[[record]]
molecule = "Cc1ccc([C@@H](c2ccc3c(nnn3C)c2C)[C@@H](C)C(=O)O)cc1CN1Cc2cnccc2OC(C)(C)C1 [Example 203, Formic Acid Salt]"
reported_metric = "EC50"
readout_value = "10 to 100 nM"

[[record]]
molecule = "CCn1nnc2c(Cl)c([C@H](CC(=O)O)c3ccc(C)c(CN4Cc5ccccc5OC(C)(C)C4)c3)ccc21 [Example 55, Sodium salt]"
reported_metric = "EC50"
readout_value = "10 to 100 nM"

[[record]]
molecule = "CCC1Cc2ccccc2CN(Cc2cc(C(CC(=O)O)c3ccc4c(nnn4C)c3C)ccc2C)C1 (centres unmarked) [Example 106]"
reported_metric = "EC50"
readout_value = "100 to 1000 nM"


The following molecules each have a reported value; give each one's EC50.
1. CC[C@@H]1CN(Cc2cc([C@H](c3ccc4c(nnn4C)c3C)[C@H](C)C(=O)O)ccc2C)Cc2ccccc2O1 [Example 39]
2. Cc1ccc(C(CC(=O)O)c2ccc3c(nnn3C)c2C)cc1CN(C)Cc1ccccc1Br (centres unmarked) [Example 15]
3. Cc1ccc([C@@H](CC(=O)O)c2ccc3c(nnn3C)c2C)cc1CN1Cc2ncccc2OC(C)(C)C1 [Example 169, Formic acid salt]

1. 10 to 100 nM
2. 1000 to 10000 nM
3. 10 to 100 nM

# per-item lookup of EC50; items listed below
1. CC[C@@H]1CN(Cc2cc(C(CC(=O)O)c3cnc4c(nnn4C)c3C)ccc2C)Cc2ccccc2O1 (some centres unmarked) [Example 47, Trifluoroacetic Acid Salt]
2. CCn1nnc2c(C)c(C(CC(=O)O)c3ccc(C)c(CN4Cc5ccccc5O[C@@H](C)C4)c3)ccc21 (some centres unmarked) [Example 97, Formic Acid Salt]
3. Cc1ccc(C(CC(=O)O)c2ccc(F)cc2C)cc1Cn1ccnc1CC1CCCCC1 (centres unmarked) [Example 135]

100 to 1000 nM
100 to 1000 nM
10 to 100 nM
